Sourced from ChEMBL document CHEMBL5331051

tested on: Staphylococcus aureus; assay: Antibacterial activity against Staphylococcus aureus KCTC 1621 strain assessed as bacterial growth inhibition measured at 18 to 24 hrs by microdilution assay; format: functional; conditions: time 18-24 hrs
Would you mind telling me the reported MIC of each entry?
Value expressed in µM; do not type the unit.

Inquiry: Identify the reported MIC for the following entry. NCCCN(CCCN)c1nc(NCc2ccccc2)nc(N2CC(Cc3ccccc3)N(c3nc(NCc4ccc5ccccc5c4)nc(N(CCCN)CCCN)n3)CC2Cc2ccccc2)n1 (centres undefined)
Reply text: 4.7

Inquiry: Determine from records and report MIC for NCCNc1nc(NCCN)nc(N2CC(Cc3ccccc3)N(c3nc(NCCN)nc(NCCN)n3)CC2Cc2ccccc2)n1 (centres undefined)
Reply text: 6.1

Inquiry: Look up and state reported MIC for NCCCNc1nc(NCCCN)nc(N2CCN(c3nc(NCCCN)nc(NCCCN)n3)C(Cc3ccccc3)C2)n1 (centres undefined)
Reply text: 25.6

Inquiry: Query MIC for NCCCN(CCCN)c1nc(NCc2ccccc2)nc(N2CC(Cc3ccccc3)N(c3nc(NCc4ccccc4)nc(N(CCCN)CCCN)n3)CC2Cc2ccccc2)n1 (centres undefined)
Reply text: 2.5
